Measured values drawn from the supplement of paper PMC11451515 for this set.

Test system: NOMO1
Experiment: AUC of viability dose-response curve (% viability x log10 dose units); higher = less sensitive
Conditions: RPMI 5 mM glucose + 10% dialyzed FBS; 48 h
measure_name: AUC of viability dose-response curve
Output: the number by itself.

# count of solved cases: 3
| compound | readout_value |
| --- | --- |
| COC(=O)Nc1nc2cc(C(=O)c3ccc(F)cc3)ccc2[nH]1 | 402 |
| CC[S+](=O)([O-])Nc1ccc2c(c1)/C(=C(/Nc1ccc(CN3CCCCC3)cc1)c1ccccc1)C(=O)N2 | 323 |
| O=C(NCCCCN1CCOCC1)c1cc2ccccc2o1 | 451 |

Here is the next item to consider.
For the compound N[S+](=O)([O-])c1cc2c(cc1Cl)NC(C(Cl)Cl)N[S+]2(=O)[O-] (centres undefined) , give its measured AUC of viability dose-response curve value.
442

====

System: SEM cells
Assay: cell viability relative to DMSO control; higher = less cytotoxic
Details: RPMI 5 mM glucose + 10% dialyzed FBS; 48 h; 0.569 µM
The following molecules are shown together with reported cell viability values.

| molecule | cell viability |
| --- | --- |
| CCN1\C=C(\C(O)=O)C(=O)C2=C1N=C(N3CCNCC3)C(=C2)F | 90.5% |
| CC(NC(C)(C)C)C(=O)c1cccc(Cl)c1 (centres undefined) | 139% |
| N[S+](=O)([O-])c1cc2c(cc1Cl)NC(C(Cl)Cl)N[S+]2(=O)[O-] (centres undefined) | 121% |

For the molecule `O=[N+]([O-])c1ncc[nH]1` , give its measured cell viability value.
94.8%

====

The following compounds are shown together with reported cell viability values.
System: P12-Ichikawa
Test: cell viability relative to DMSO control; higher = less cytotoxic
Conditions: HPLM + 10% dialyzed FBS; 48 h; 0.19 µM
Dear colleague, please return just the value in %, with no unit written.

# count of solved cases: 3
| compound | measured_target | cell viability, % |
| --- | --- | --- |
| O=C(CCCCCCC(=O)Nc1cccnc1)NO | P12-Ichikawa | 109 |
| N\C1=N\C2=C(N=C[N]2COCCO)C(=O)N1 | P12-Ichikawa | 112 |
| CCOC(=O)C(C#N)C\1C2=CC(=CC=C2O\C(=C1C(=O)OCC)N)Br (centres undefined) | P12-Ichikawa | 103 |

Report cell viability on P12-Ichikawa for this entry: `CC(=O)N[C@@H]1[C@@H](NC(N)=N)\C=C(/O[C@H]1[C@H](O)[C@H](O)CO)C(O)=O`
116

Report cell viability on P12-Ichikawa for this entry: O=C(O)CCCCC(CCSCc1ccccc1)SCc1ccccc1 (centres undefined)
116

Report cell viability on P12-Ichikawa for this entry: `c1ccc2c(Cc3c[nH]c4ccccc34)c[nH]c2c1`
95.4

Report cell viability on P12-Ichikawa for this entry: CC1(CN2CCC(n3c(=O)[nH]c4ccccc43)CC2)OCc2ccccc2-n2cccc21 (centres undefined)
104

Report cell viability on P12-Ichikawa for this entry: `ClC1=CC=C2N/C3=N/C(=O)CN3CC2=C1Cl`
122

Report cell viability on P12-Ichikawa for this entry: `NC(=O)Nc1sc(-c2ccc(F)cc2)cc1C(N)=O`
111

Report cell viability on P12-Ichikawa for this entry: N[C@H]2CN(CC12CC1)c3c(F)cc4c(c3Cl)[N@@](C=C(C4=O)C(=O)O)C5C[C@H]5F (some centres undefined)
89.8

Report cell viability on P12-Ichikawa for this entry: CCC(C)N1\N=C/N(C1=O)C2=CC=C(C=C2)N3CCN(CC3)C4=CC=C(OC[C@H]5CO[C@@](C[N]6C=NC=N6)(O5)C7=CC=C(Cl)C=C7Cl)C=C4 (some centres undefined)
115

Report cell viability on P12-Ichikawa for this entry: `CC(C)N(C[C@H]1O[C@@H](n2cnc3c(N)ncnc32)[C@H](O)[C@@H]1O)[C@H]1C[C@@H](CCc2nc3cc(C(C)(C)C)ccc3[nH]2)C1`
103
